The molecules listed here are annotated with their Dmax.
# measurement-target: IRAK4 (Homo sapiens)
# measurement-description: WB detection of proteolysis (Western Blot, THP-1 cells)
# Type: cell-based
# condition: Western Blot, THP-1 cells, 24 h; read-out: Dmax

molecule | Dmax
Cn1c(=O)n(C2CCC(=O)NC2=O)c2cccc(N3CCC4(CC3)CN(C[C@H]3CC[C@H](n5cc(-n6cc(-c7ccc8cc(C(N)=O)cnn78)nn6)c(C(F)F)n5)CC3)C4)c21 (some centres unmarked) [Example 64] | 60 to 70%
Cn1nc(N2CCC(=O)NC2=O)c2ccc(N3CCC(N4CCN(C[C@H]5CC[C@H](n6cc(-n7cc(-c8cnn9ccc(N[C@@H]%10CCCC[C@@H]%10O)nc89)nn7)c(C(F)F)n6)CC5)CC4)CC3)cc21 [Example 161] | < 60%
C[C@H]1COCCN1c1ccn2ncc(-c3cn(-c4cn([C@H]5CC[C@H](CN6CCN(C7CCN(c8cccc9c8n(C)c(=O)n9C8CCC(=O)NC8=O)CC7)CC6)CC5)nc4C(F)F)nn3)c2n1 (some centres unmarked) [Example 59] | > 70%
Cn1c(=O)n(C2CCC(=O)NC2=O)c2cccc(N3CCC4(CCN(C[C@H]5CC[C@H](n6cc(-n7cc(-c8cnn9ccc(N[C@H]%10CCCC[C@H]%10O)nc89)nn7)c(C(F)F)n6)CC5)C4)CC3)c21 (some centres unmarked) [Example 147] | > 70%
Cn1c(=O)n(C2CCC(=O)NC2=O)c2cccc(N3CCC(N4CCN(C[C@H]5CC[C@H](n6cc(-n7cc(-c8cnn9ccc(NCCC(C)(C)O)nc89)nn7)c(C(F)F)n6)CC5)CC4)CC3)c21 (some centres unmarked) [Example 125] | > 70%

---

# measurement-target: IRAK4 (Homo sapiens, UniProt Q9NWZ3)
# Sequence (Q9NWZ3 1-460): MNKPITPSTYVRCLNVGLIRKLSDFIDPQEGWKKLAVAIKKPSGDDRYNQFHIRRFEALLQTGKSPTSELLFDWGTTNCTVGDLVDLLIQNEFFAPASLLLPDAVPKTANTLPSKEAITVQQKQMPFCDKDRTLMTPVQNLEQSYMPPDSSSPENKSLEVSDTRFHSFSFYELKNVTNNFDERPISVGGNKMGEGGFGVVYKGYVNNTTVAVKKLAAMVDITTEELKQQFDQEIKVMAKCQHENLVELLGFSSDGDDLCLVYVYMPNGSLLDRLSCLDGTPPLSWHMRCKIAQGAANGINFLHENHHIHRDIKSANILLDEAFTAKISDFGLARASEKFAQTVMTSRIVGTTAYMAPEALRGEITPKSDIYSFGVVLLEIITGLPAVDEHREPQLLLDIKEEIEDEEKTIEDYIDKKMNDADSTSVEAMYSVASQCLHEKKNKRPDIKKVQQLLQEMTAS
# measurement-description: Hibit fluorescence detection of proteolysis (IRAK4-HiBiT in HEK293T cells)
# Type: cell-based
# Design: host or cells: HEK293T (ATCC)
# condition: IRAK4-HiBiT, HEK293T cells, 24 h

compound | DC50
C[C@@H]1CN(C[C@H]2CC[C@H](n3cc(-n4cc(-c5cnn6ccc(N7CCOCC7)nc56)nn4)c(C(F)F)n3)CC2)CCN1c1cccc2c1n(C)c(=O)n2C1CCC(=O)NC1=O (stereo partly shown) [Example 46] | < 0.5 nM
Cn1c(=O)n(C2CCC(=O)NC2=O)c2cccc(CN3CCC4(CC3)CN(C[C@H]3CC[C@H](n5cc(-n6cc(-c7cnn8ccc(N9CCOCC9)nc78)nn6)c(C(F)F)n5)CC3)CCO4)c21 (stereo partly shown) [Example 5] | < 0.5 nM
NC(=O)c1cnn2c(-c3cn(-c4cn(C5CCN(CC6CCC7(CC6)CCN(C(=O)c6ccc(Cl)c(N8CCC(=O)NC8=O)c6)CC7)CC5)nc4C(F)F)nn3)ccc2c1 [Example 77] | 0.5 to 1 nM
Cn1c(=O)n(C2CCC(=O)NC2=O)c2cccc(N3CCC4(CCN(C[C@H]5CC[C@H](n6cc(-n7cc(-c8cnn9ccc(NCC%10CC%10)nc89)nn7)c(C(F)F)n6)CC5)CC4)C3)c21 (stereo partly shown) [Example 109] | 0.5 to 1 nM
Cn1c(=O)n(C2CCC(=O)NC2=O)c2cccc(N3CCN(C4CN(C[C@H]5CC[C@H](n6cc(-n7cc(-c8cnn9ccc(N%10CCOCC%10)nc89)nn7)c(C(F)F)n6)CC5)C4)CC3)c21 (stereo partly shown) [Example 44] | < 0.5 nM
Cn1c(=O)n(C2CCC(=O)NC2=O)c2cccc(C#CC3CN(C[C@H]4CC[C@H](n5cc(-n6cc(-c7cnn8ccc(N9CCOCC9)nc78)nn6)c(C(F)F)n5)CC4)C3)c21 (stereo partly shown) [Example 27] | < 0.5 nM
CN(C[C@H]1CC[C@H](n2cc(-n3cc(-c4cnn5ccc(N6CCOCC6)nc45)nn3)c(C(F)F)n2)CC1)C1CCC(Nc2cccc3c2n(C)c(=O)n3C2CCC(=O)NC2=O)CC1 (stereo partly shown) [Example 20] | < 0.5 nM
Cn1c(=O)n(C2CCC(=O)NC2=O)c2cccc(N3CC(CN4CCC(n5cc(-n6cc(-c7ccc8cc(C(N)=O)cnn78)nn6)c(C(F)F)n5)CC4)C3)c21 (stereo not shown) [Example 73] | < 0.5 nM
Cn1c(=O)n(C2CCC(=O)NC2=O)c2cccc(N3CCN(C[C@H]4CC[C@H](n5cc(-n6cc(-c7cnn8ccc(N9CCC[C@H](N)C9)nc78)nn6)c(C(F)F)n5)CC4)CC3)c21 (stereo partly shown) [Example 115] | < 0.5 nM
Cn1c(=O)n(C2CCC(=O)NC2=O)c2cccc(N3CCC4(CCN(C[C@H]5CC[C@H](n6cc(-n7cc(-c8cnn9ccc(N%10CCC[C@H](O)C%10)nc89)nn7)c(C(F)F)n6)CC5)C4)CC3)c21 (stereo partly shown) [Example 145] | < 0.5 nM

Every entry's value here was drawn from patent EP4759807A1.
